assay: gradient 5% acetonitrile 3 min, to 50% in 2 min, to 85% in 15 min, held 3 min, 100 µL/min
assayContext: column: Zorbax Extend-C18 2.1 x 50 mm; eluents: water / acetonitrile, 0.1% formic acid
experimentalReadout: RP-LC retention time (s)

smilesStructure	experimentalReadout	resultNumber
CCCCN1CCN(C(=O)c2cc(CC)n3nc(-c4ccccn4)cc3n2)CC1	RP-LC retention time	614
O=C(Cn1nc(N2CCCC2)c2ccccc2c1=O)Nc1ccc(F)c(Cl)c1	RP-LC retention time	1000
Cc1ccc(NC(=O)Cn2nc3n(c2=O)CCCC3)cc1	RP-LC retention time	640
CCOC(=O)c1noc2ncnc(NCc3cccc(OC)c3)c12	RP-LC retention time	971
Cn1c(=O)c(=O)n(C)c2cc(N3CCCCC3)c(NC(=O)CN3CCCCC3)cc21	RP-LC retention time	592

###

Listed compounds paired with reported RP-LC retention time
assay: gradient 5% acetonitrile 3 min, to 50% in 2 min, to 85% in 15 min, held 3 min, 100 µL/min
assayContext: column: Zorbax Extend-C18 2.1 x 50 mm; eluents: water / acetonitrile, 0.1% formic acid

compound	readingUnit	RP-LC retention time
Cc1cc(C)c(S(=O)(=O)Nc2ccc(-c3cn4ccccc4n3)cc2)cc1C	s	719
Cc1cc(NC(=O)Cn2c(=O)n(C(C)C)c3ccc(-c4noc(C)n4)cc32)no1	s	755
O=C(c1cccs1)N1CCCC(c2nn[nH]n2)C1 (stereo not given)	s	627
COc1cccc(CNC(=O)C2(C)CCN(C(=O)Nc3ccc(Br)c(C)c3)CC2)c1	s	934
Cc1cnc(-c2ccccc2)n1C1CN(Cc2ccc(F)cc2F)C1	s	572

###

assay: gradient 5% acetonitrile 3 min, to 50% in 2 min, to 85% in 15 min, held 3 min, 100 µL/min
assayContext: column: Zorbax Extend-C18 2.1 x 50 mm; eluents: water / acetonitrile, 0.1% formic acid
# cutoff 800 s applies to RP-LC retention time; >= gives T, < gives F

molecule	answerLabel
COC(=O)c1ccccc1S(=O)(=O)N1CCc2c(c(-c3nnc(-c4ccc(F)cc4)o3)nn2C)C1	T
CCS(=O)(=O)N1CC(=O)N(c2cccc(C)c2C)C(C)(C(=O)NC2CCCCCC2)C1 (centres undefined)	T
CCNC(=O)N1CC(n2cc(C(=O)N(C)CCCc3c(C)nn(C)c3C)nn2)C1	F
Cn1cc2c3c(cccc31)CN(C(=O)Nc1cc(Cl)ccc1Cl)CC2	T
COC(=O)c1ccc(CN2CCN(c3cnn4c(C5CC5)nnc4c3)CC2)cc1	F
CCn1c(C2CCN(S(=O)(=O)c3cccc(C)c3)C2)nc2cccnc21 (centres undefined)	F
O=C(Cc1c[nH]c2ccccc12)Nc1cc(-c2ccsc2)no1	T
CCn1cc(C(=O)Nc2cccc(Br)c2)c2nn(-c3ccccc3)c(=O)c-2c1	T
COc1cc(C(C)=O)ccc1OCC(O)CN1CCN(c2ccc(C)c(Cl)c2)CC1 (centres undefined)	F
COc1ccc(OC)c(S(=O)(=O)N2CCC(Cc3ncc(C)n3C3CC3)C2)c1 (centres undefined)	F
Cc1cc(C)c(-c2noc(C)n2)c(NC(=O)c2cccc(Cl)c2)n1	T
COC[C@@H]1CN(Cc2cc(Cl)ccc2F)C[C@H]1c1nc(C)no1	F
CCc1ccc(CNC(=O)CN2CCc3ccccc3C2C(=O)N2CCC(C)CC2)cc1 (centres undefined)	T
COC(=O)c1c(NCC(C)O)c2cccc(Cl)c2[nH]c1=O (centres undefined)	F
Cc1csc(-c2cc(S(=O)(=O)N(Cc3cccs3)C3CCCC3)c(C)s2)n1	T
O=C(CSCc1ccccc1)NCC#CCN1CCc2ccccc2C1	F
COc1cccc(-c2nc(-c3ccc4oc(-c5ccccc5)nc4c3)no2)c1OC	T
CCCNS(=O)(=O)c1c(C)sc(C)c1-c1cc(C(F)(F)F)on1	T
CCN(CC)S(=O)(=O)c1ccc(-c2c(C)noc2C)cc1	T
Cc1ccc(NC(=O)C2CCN(S(C)(=O)=O)c3cc(Cl)ccc3O2)c(C)c1 (centres undefined)	T
COC(=O)C(Cc1ccccc1)NC(=O)Nc1cccn2cnnc12 (centres undefined)	F
CC1CCCCN1CCCNC(=O)CCCN1C(=O)CCn2nc(-c3cccn3C)cc21 (centres undefined)	F
Cc1noc(C)c1CNC(=O)COc1ccc(F)cc1	F
CCc1cccc(C)c1Nc1c(-c2ccccc2)nc2cnccn12	T
CCCn1ncc(N2CCC(C(=O)NCc3cccs3)CC2)cc1=O	F
Cn1c(=O)c2c(-c3cccc(Br)c3)n(Cc3ccco3)cc2n(C)c1=O	T
COCCN1C(=O)[C@H]2CN(Cc3cccc(OC(F)(F)F)c3)C[C@H]2C1=O	F
CCCNc1cc(N2CCC(CCC(=O)NCCc3ccccn3)CC2)ncn1	F
CCN(C(=O)Cc1c(C(=O)O)c(C)cn1CC)c1cccc(Cl)c1	T
CCN(CC)C(=O)Cn1c(=O)c2cnc(-c3ccc(Cl)cc3)nc2n(CC)c1=O	F
COc1ccc(-c2csc(NC(=O)CCn3c(=O)oc4ccccc43)n2)cc1	T
COc1ccc(-c2nc3ccccn3c2NC(=O)c2cccc([N+](=O)[O-])c2)cc1	F

###

assay: gradient 5% acetonitrile 3 min, to 50% in 2 min, to 85% in 15 min, held 3 min, 100 µL/min
assayContext: column: Zorbax Extend-C18 2.1 x 50 mm; eluents: water / acetonitrile, 0.1% formic acid
Assign Fulfilled whenever RP-LC retention time does not fall below 800 s; assign Not fulfilled whenever it does.

compound	answerLabel
COc1ccccc1-c1nnc(-c2cccc(S(=O)(=O)N3CCCCC3)c2)o1	Fulfilled
COc1ccc(NC(=O)CC(C)=O)c(OC)c1	Not fulfilled
CC(C)(C)c1noc(-c2ccc(-n3cnc(C(=O)N4CCCCCC4)c3)nc2)n1	Fulfilled
CCCNC(=O)N1CCCN(C2=NS(=O)(=O)C(c3cccc(Cl)c3)=C2C)CC1	Not fulfilled
Cc1cc(F)ccc1NC(=O)c1nnn(-c2ccc(F)cc2)c1-c1cccnc1	Fulfilled
O=C(NCc1ccc(Br)cc1)C1CCCN(c2ccnc(-c3ccc(F)cc3)n2)C1 (centres undefined)	Not fulfilled
Cc1ccccc1NC(=O)N1CCC2(CC1)Nc1ccccc1-n1cccc12	Fulfilled
Cc1cccc(Sc2nccnc2N2CCC(C(=O)NCCN3CCOCC3)CC2)c1	Not fulfilled
CC1(COc2ccc3c(c2)ncn3-c2ccc3cccc(N4CCC(N)CC4)c3n2)COC1	Not fulfilled
O=C(O)c1cccc(Nc2c(-c3ccc([N+](=O)[O-])cc3)nc3cnccn23)c1	Not fulfilled
O=C(CN1C(=O)CCc2cc(Br)ccc21)N1CCN(c2ccccn2)CC1	Not fulfilled
Cc1cccc(-c2noc(Cn3ccn(Cc4ccc(Cl)cc4)c(=O)c3=O)n2)c1	Fulfilled
Cc1ccc2nc(-c3ccccc3)c(Nc3ccc(Cl)cc3)n2c1	Not fulfilled
Cc1cccc(N2CCN(S(=O)(=O)c3cc(-c4cc(C(F)(F)F)[nH]n4)sc3C)CC2)c1C	Fulfilled
COc1ccc(-n2c(=O)c(C(=O)Nc3ccc(F)c(Cl)c3)c(O)c3cccnc32)cc1	Fulfilled
COc1ccc(-c2noc(Cc3nnc(-c4ccccc4)o3)n2)cc1OC	Fulfilled
CNC(=O)N1CCCC(c2cccc(C(=O)NCc3cccs3)c2)C1 (centres undefined)	Not fulfilled
Cc1cc(C)c2c(N3CCCCC3)nc(C(=O)N3CCC(C)CC3)nc2n1	Not fulfilled
CCCCN1C(=O)C(C)(C(=O)NCc2cccc(C)c2)Oc2cccnc21 (centres undefined)	Fulfilled
CC1CCN(S(=O)(=O)c2ccc(-c3nnc(C(=O)N4CCCCC4)o3)cc2)CC1	Fulfilled
O=C(NCc1ccccc1C(F)(F)F)C1=C2CCCN2c2ccccc2S1(=O)=O	Fulfilled
CCCCNC(=O)C1CCN(c2cnn(Cc3ccccc3)c(=O)c2)CC1	Not fulfilled
O=C1NC2(CCN(C(=O)c3ccccc3F)CC2)Nc2c(Cl)cccc21	Not fulfilled
Cc1ccc(-c2nc(CN3C(=O)C(O)(c4ccccc4)c4ccccc43)c(C)o2)cc1 (centres undefined)	Fulfilled
CCCn1c(=O)sc2cc(S(=O)(=O)N3CCC(C(=O)NCc4ccc(C)cc4)CC3)ccc21	Fulfilled
O=C1C(c2cccnc2)N(Cc2cccs2)C(=O)CN1c1ccccc1 (centres undefined)	Not fulfilled
COc1ccc(NC(=O)Cn2cnc3nc4c(cc3c2=O)CCCC4)cc1OC	Not fulfilled
CC(C)CC(=O)Nc1n[nH]c2c1CN(C(=O)C1CCN(C)CC1)C2(C)C	Not fulfilled
CS(=O)(=O)N1CCN(Cc2nnnn2-c2ccc(Cl)cc2)CC1	Not fulfilled
O=C(NCC1CCOCC1)Nc1ccccc1Br	Not fulfilled
CS(=O)(=O)N1CCC(C(=O)NCc2ccccc2Cl)Oc2ccccc21 (centres undefined)	Fulfilled
CC(C)(C)C(=O)Nc1ccc(N2CCN(CC(=O)N3CCCC3)CC2)cc1C(=O)O	Not fulfilled

###

assay: gradient 5% acetonitrile 3 min, to 50% in 2 min, to 85% in 15 min, held 3 min, 100 µL/min
assayContext: column: Zorbax Extend-C18 2.1 x 50 mm; eluents: water / acetonitrile, 0.1% formic acid
The label criterion met is reserved for RP-LC retention time strictly under 800 s; criterion not met covers values equal to or above it.

compound	answerLabel
COc1cccc(C(=O)CSc2ccc(-n3cccn3)nn2)c1	criterion not met
Cc1c(C(=O)N2CCN(C(=O)c3ccc(Br)o3)CC2)[nH]c2ccccc12	criterion not met
O=C(Nc1cccn2cnnc12)c1ccc(C(F)(F)F)cc1	criterion met
CCCCN(C)Cc1nc(-c2ccc(N3CCOCC3)nc2)no1	criterion met
Cc1ccc(C)c(S(=O)(=O)N2CCc3nc(-c4ccc(F)cc4)ncc3C2)c1	criterion not met
Cc1ccc(NC(=O)CSc2cc(N3CCC(C)CC3)ncn2)c(C)c1	criterion not met
CCOC(=O)c1c(C)oc2nc(C)nc(NCCCN(CC)c3ccccc3)c12	criterion not met
Cc1csc(-c2cc(S(=O)(=O)N3CCCCC3)c(C)n2C)n1	criterion not met
CCN1c2ccccc2C(=O)NC12CCN(C(=O)c1cc(OC)cc(OC)c1)CC2	criterion met
O=S(=O)(CCc1noc(-c2cccc(F)c2)n1)c1ccccc1	criterion not met
CC1CCN(C(CNC(=O)c2cc(-c3ccc4c(c3)OCCO4)on2)c2ccco2)CC1 (stereo not given)	criterion met
CCOC(=O)CCCn1c(=O)c2cccn2c2ccc(F)cc21	criterion not met
O=C(Cn1c(-c2cccs2)cc2ccccc21)N1CCN(C(=O)c2ccco2)CC1	criterion not met
O=C(Nc1ccc(-c2nc(-c3ccccc3)co2)cc1)c1cccs1	criterion not met
COC(=O)c1c(C)c(C(=O)C(C)N(C(=O)c2ccc(F)cc2)C(C)C)c(C)n1C (stereo not given)	criterion not met
O=C(c1cc(Cl)ccc1Cl)N(CCc1cccs1)C1CC1	criterion not met
O=C(Nc1ccc(Cl)cc1)C(=O)c1cn(CC(=O)N2CCCC2)c2ccccc12	criterion not met
COC(=O)c1ccc(NC(=O)N2[C@H]3CC[C@@H]2c2cnc(C)nc2C3)cc1	criterion met
Cc1nc(CC(=O)Nc2nc(-c3ccc(Br)cc3)c(C)s2)cs1	criterion not met
